Data provenance: patent US20120065123A1

measured_on: Tumor Necrosis Factor-alpha (TNF-α)
Sequence (P01375 77-233): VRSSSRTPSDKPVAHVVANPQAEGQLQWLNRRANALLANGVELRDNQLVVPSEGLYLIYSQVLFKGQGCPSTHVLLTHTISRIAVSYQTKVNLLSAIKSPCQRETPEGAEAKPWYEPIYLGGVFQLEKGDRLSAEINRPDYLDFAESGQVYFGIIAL
experiment_summary: SPR equilibrium, Biacore A100, TNF-α captured on chip
If the reported Binding ΔG (observed) equals or exceeds -7 kcal/mol, assign Met. If not, assign Not met.

A selection of reference data follows.
[[record]]
binder = "FERYPLKMPWSFLQSRQGSC (modifications not checked) [TNF1 D4Y+M7K double mutant]"
category_label = "Met"

[[record]]
binder = "FERSYLKMPWKFLQSRQGSC (modifications not checked) [TNF1-opt (D4S+P5Y+M7K+S11K quadruple mutant of TNF1)]"
category_label = "Not met"

[[record]]
binder = "FERYPLMMPWKFLQSRQGSC (modifications not checked) [TNF1 D4Y+S11K double mutant]"
category_label = "Met"

[[record]]
binder = "FERDYLKMPWSFLQSRQGSC (modifications not checked) [TNF1 P5Y+M7K double mutant]"
category_label = "Met"

[[record]]
binder = "FERSYLKMPWSFLQSRQGSC (modifications not checked) [TNF1 D4S+P5Y+M7K triple mutant]"
category_label = "Met"


Please look at the following binder next.
Query :: Is it the case that FERDYLMMPWKFLQSRQGSC (modifications not checked) [TNF1 P5Y+S11K double mutant] has Binding ΔG (observed) reaching or exceeding -7 kcal/mol?
Result :: Met
